Kindly state protein stability index for each of the entries shown.
B1: DFFB (parent)
chain: TLVEAIKEQDGREVDWEYFYGLLF

variants of: B1; experiment: protein stability index of a GFP-peptide fusion (GPS, HEK-293T) (PSI 1-6); higher = more stable; settings: c terminus: a fixed tail appended;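 note: lentivirally expressed fusions sorted by FACS into six bins by GFP to DsRed ratio, PSI derived from sequencing read proportions per bin multiplied by bin number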
One number for each entry.

> print(dat)
   variant.identifier  recorded.value
1                R12K            2.41
2                F24S            2.52

Would you mind listing protein stability index for each of the following variants?
1. T1P
2. D15C
3. I6N
4. L22D
5. I6C

1: 2.54; 2: 1.9; 3: 2.2; 4: 2.62; 5: 2.24

Would you mind listing protein stability index for each of the following variants?
1. G21V
2. L23P
3. K7R

[1.08, 2.18, 1.03]

Would you mind listing protein stability index for each of the following variants?
1. I6W
2. D10C

1. 1.38
2. 1.99

Would you mind listing protein stability index for each of the following variants?
1. E13C
2. Q9W

1: 1.22; 2: 2.59
